As shown below, each of these substances has a reported Levels of IL-6 value.
# Test system: human peripheral blood mononuclear cells (PBMCs)
# assay_remarks: Human PBMC activation assay, cytokine levels (IL-10, IL-6, MCP-1, TNF-α) in supernatant after 24 hours (Example 9)
# test_settings: human PBMC supernatant after 24 hours; 1.6 μM oligonucleotide
Give your result in pg/mL as a bare value.

Please review the entries below; each comes with its answer.
**Q:** Provide measured Levels of IL-6 value, entry: 798781 (CGTAAGATTCACAGCA; 3-10-3 cEt gapmer, further chemistry not given here) [compound 798781]
**A:** 12.3

**Q:** Provide measured Levels of IL-6 value, entry: 830037 (antisense CTATTGGCTGATCTGG; 3-10-3 cEt gapmer, further chemistry not given here) [compound 830037]
**A:** 38.6

**Q:** Provide measured Levels of IL-6 value, entry: 736697 (antisense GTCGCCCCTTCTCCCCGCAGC; chemistry not fully specified) [compound 736697]
**A:** 15.5

**Q:** Provide measured Levels of IL-6 value, entry: 830025 (antisense TTTGTAAATCGAAAGC; 3-10-3 cEt gapmer, further chemistry not given here) [compound 830025]
**A:** 12.9

---
**Q:** Provide measured Levels of IL-6 value, entry: 830121 (AGAATCAAGCCCTGGC; 3-10-3 cEt gapmer, further chemistry not given here) [compound 830121]
**A:** 5.4

**Q:** Provide measured Levels of IL-6 value, entry: 790615 (CCAATGAGAATGCTTC; 3-10-3 cEt gapmer, further chemistry not given here) [compound 790615]
**A:** 9.0

**Q:** Provide measured Levels of IL-6 value, entry: 829994 (GGAGGCAGGGCCGCGA; 3-10-3 cEt gapmer, further chemistry not given here) [compound 829994]
**A:** 15.9
